This listing pairs compounds with measured MIC80.
system: Candida albicans; experiment: Antifungal activity against Candida albicans Y0109 after 24 hrs by micro-broth dilution method; assay type: functional; details: Y0109, 24 h

Sample records with MIC80:
1. CN(C)C(=S)SCC(O)(Cn1cncn1)c1ccc(F)cc1F (racemic)
≤ 0.125 µg/mL
2. OC(CSC(=S)N1CCN(c2cccc(Cl)c2Cl)CC1)(Cn1cncn1)c1ccc(F)cc1F (racemic)
≤ 0.125 µg/mL

As a next step, examine the compound that follows.
(Q) Observed MIC80 on Candida albicans for CN1CCN(C(=S)SCC(O)(Cn2cncn2)c2ccc(F)cc2F)CC1 (racemic) , please.
(A) ≤ 0.125 µg/mL
